Record form. Attribute: MFI. Fill in for each entry.
MEASURED ON: DLL3 endogenously expressed on NCI-H82 cells (UniProt Q9NYJ7)
Sequence (Q9NYJ7 27-618): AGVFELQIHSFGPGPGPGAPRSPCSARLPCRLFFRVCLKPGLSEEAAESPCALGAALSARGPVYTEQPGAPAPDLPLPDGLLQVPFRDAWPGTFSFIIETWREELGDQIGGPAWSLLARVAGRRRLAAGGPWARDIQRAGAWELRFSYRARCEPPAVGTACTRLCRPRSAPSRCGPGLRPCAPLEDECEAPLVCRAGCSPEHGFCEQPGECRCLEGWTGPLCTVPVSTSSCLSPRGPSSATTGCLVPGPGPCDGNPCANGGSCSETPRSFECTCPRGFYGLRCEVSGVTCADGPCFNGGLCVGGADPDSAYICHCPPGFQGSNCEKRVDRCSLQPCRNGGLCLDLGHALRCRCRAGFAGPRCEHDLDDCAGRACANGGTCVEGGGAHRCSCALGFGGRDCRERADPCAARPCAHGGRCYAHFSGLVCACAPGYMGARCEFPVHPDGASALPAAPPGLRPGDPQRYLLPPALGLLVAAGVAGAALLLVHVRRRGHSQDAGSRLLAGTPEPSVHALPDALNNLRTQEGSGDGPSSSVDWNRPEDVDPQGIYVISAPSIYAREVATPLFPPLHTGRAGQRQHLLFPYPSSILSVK
TEST NAME: FACS on NCI-H82 cells; antibody 20 nM
Answers are plain numbers.

Would you please look over these solved cases?
mab014 scFv-hFc (Fc fusion, part only; not given: Linker and human IgG1 Fc, not shown: a dimerising Fc or GST) chain, part: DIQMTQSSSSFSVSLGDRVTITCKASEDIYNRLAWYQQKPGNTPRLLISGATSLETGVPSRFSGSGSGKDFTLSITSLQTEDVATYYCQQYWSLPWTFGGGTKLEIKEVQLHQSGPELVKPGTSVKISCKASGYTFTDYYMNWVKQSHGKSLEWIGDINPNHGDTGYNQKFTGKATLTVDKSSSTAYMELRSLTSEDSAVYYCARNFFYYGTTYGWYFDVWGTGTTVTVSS
829
Hab009VL1aVH1-hFc (Fc fusion, part only; not given: Linker and human IgG1 Fc, not shown: a dimerising Fc or GST) chain, part: DIVMTQSPLSLPVTPGEPASISCRASQTISDYLHWYLQKPGQSPQLLIKYASQSISGVPDRFSGSGSGSDFTLKISRVEAEDVGVYYCQQGHSFPLTFGQGTKLEIKEVQLVQSGAEVKKPGASVKVSCKASGYTFTSYWMHWVRQAPGQRLEWMGTIYPGNSDTRYNQKFKDRVTITADTSASTAYMELSSLRSEDTAVYYCTRSYDYGDLDYWGQGTTVTVSS
815

Pending binder:
Would you kindly share the measured MFI for Hab008L3H2a-hFc (scFv, part only; not given: VL-VH linker and human IgG1 Fc, V domains shown, not shown: another chain or arm of the molecule; a dimerising Fc or GST; small tags and cut ends) VL: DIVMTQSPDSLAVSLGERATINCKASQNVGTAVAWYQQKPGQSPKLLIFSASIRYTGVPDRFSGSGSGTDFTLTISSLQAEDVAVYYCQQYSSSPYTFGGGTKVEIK VH: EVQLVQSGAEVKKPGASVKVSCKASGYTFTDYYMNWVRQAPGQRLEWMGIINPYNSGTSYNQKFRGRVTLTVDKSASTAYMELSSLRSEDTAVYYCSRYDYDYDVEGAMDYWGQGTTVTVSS ? 448
